Source: paper PMC9214608

TESTED SYSTEM: UniProt P0DTD1
PROCEDURE DETAILS: biochemical
CONDITION DETAILS: In vitro SARS-COV-2 M^pro IC50
ATTRIBUTE MEASURED: IC50 (µM)
Write the value in µM as a bare number.

Hello, please tell me recorded IC50 for this one: C=C(C)C(C=C[C@@H](C)[C@H]1CC[C@H]2[C@@H]3CC=C4CC(O)CC[C@]4(C)[C@H]3CC[C@]12C)CC (stereo partly shown)
12.5

---

TESTED SYSTEM: SARS-CoV-2 main protease (M^pro or 3CL^pro) (Severe acute respiratory syndrome coronavirus 2)
PROCEDURE DETAILS: biochemical
CONDITION DETAILS: In vitro SARS-COV-2 M^pro IC50, FRET-based assay; mean ± SD
Record form. Attribute: pIC50. Fill in for each entry.
By convention, pIC50 is the negative base-10 log of a molar concentration.

Hello, please tell me recorded pIC50 for this one: COc1c(O)cc2c(c1O)C(=O)CC(c1ccc(O)cc1)O2 (stereo not drawn) [Compound 9, 5,7,4′-trihydroxy-6-methoxy flavanone]
4.93

Hello, please tell me recorded pIC50 for this one: O=c1cc(-c2ccc(O)c(O)c2)oc2c([C@@H]3O[C@H](CO)[C@@H](O)[C@H](O)[C@H]3O)c(O)cc(O)c12 [Compound 16, orientin]
4.56

Hello, please tell me recorded pIC50 for this one: CCCCC/C=C\C/C=C\CCCCCCCC(=O)O [Compound 3, linoleic acid]
4.68

Hello, please tell me recorded pIC50 for this one: COc1cc(C2CC(=O)c3c(O)cc(O)c(OC)c3O2)ccc1O (stereo not drawn) [Compound 8]
4.56

Hello, please tell me recorded pIC50 for this one: COc1cc(-c2cc(=O)c3c(O)cc(OC)c(OC)c3o2)ccc1O [Compound 10, 4′,5-dihydroxy-3′,7,8-trimethoxyflavone]
4.89

Hello, please tell me recorded pIC50 for this one: COc1cc(-c2cc(=O)c3c(O)cc(O)c(OC)c3o2)cc(OC)c1OC [Compound 11]
5.30

Hello, please tell me recorded pIC50 for this one: C[C@H]1[C@H](C)CC[C@]2(C)CC[C@]3(C)C(=CC[C@@H]4[C@@]5(C)CC[C@H](O)C(C)(C)[C@@H]5CC[C@]43C)[C@H]12 [Compound 2, α-amyrin]
5.38

Hello, please tell me recorded pIC50 for this one: COc1c(O)cc2c(c1O)C(=O)CC(c1cc(O)cc(O)c1)O2 (stereo not drawn) [Compound 13]
5.25

Hello, please tell me recorded pIC50 for this one: Cc1cccc(C)c1OCC(=O)N[C@@H](Cc1ccccc1)[C@@H](O)C[C@H](Cc1ccccc1)NC(=O)[C@H](C(C)C)N1CCCNC1=O [Lopinavir, reference compound]
6.65
